- Test system: HCV replicon cells
- Assay Comment: Cell-based HCV replicon assay (replicon RNA level by real time PCR, Taqman)
- Condition Info: Hepatitis C virus, 72 h, HCV replicon cells, harvested on day 3, replicon RNA by real time PCR; calculated EC90 reported as range class; read-out: EC90 (μM) range
Assay Readout: EC90

Return EC90 (reported value) for this compound: "Cc1cc2cc(-c3c(Cl)nc(NCC(F)(F)F)nc3N[C@@H]3C[C@H](CO)[C@@H](O)[C@H]3O)oc2c(C)n1"
< 0.5 µM

Identify measured EC90 associated with "Cc1nc(NCC2CC2)nc(N[C@@H]2C[C@H](CO)[C@@H](O)[C@H]2O)c1-c1cc2cc(C(F)(F)F)ncc2o1"
0.5 to 5 µM

Give recorded EC90. "CCOCCNc1nc(C)c(-c2nc(C)c(C)s2)c(N[C@@H]2C[C@H](CO)[C@H]3OC(C)(C)O[C@H]32)n1"
> 5 µM

Look up and state reported EC90 for "Cc1nc(NC(CF)CF)nc(N[C@@H]2C[C@H](CO)[C@@H](O)[C@H]2O)c1-c1nc2ccccc2s1"
> 5 µM

====

Provide the recorded EC90 for the entries that follow.
- Test system: HCV replicon cells
- Assay Comment: Cell-based HCV replicon assay (replicon RNA level by real time PCR, Taqman)
- Condition Info: Hepatitis C virus, 72 h, HCV replicon cells, replicon RNA level by real time PCR, harvested day 3; read-out: EC90 (μM) range

# return EC90 for "Cc1nc(NCC2CC2)nc(N[C@@H]2C[C@H](C)[C@@H](O)[C@H]2O)c1-c1nc2cnccc2s1" , test system: HCV replicon cells
< 0.5 µM

# return EC90 for Cc1nc(NCC(F)(F)F)nc(N[C@@H]2C[C@H](C(O)c3nccs3)[C@@H](O)[C@H]2O)c1-c1nc2ccccc2s1 (some centres unmarked) , test system: HCV replicon cells
< 0.5 µM

For HCV replicon cells, give the measured EC90 of the entry "Cc1nc(N[C@H](c2cccs2)C(F)(F)F)nc(N[C@@H]2C[C@H](CO)[C@@H](O)[C@H]2O)c1-c1nc2ccccc2s1"
> 5 µM

Give EC90 for this entry on HCV replicon cells: "Cc1nc(NCC(F)(F)F)nc(N[C@@H]2C[C@H](CN)[C@@H](O)[C@H]2O)c1-c1nc2ccccc2s1"
0.5 to 5 µM

Fill: EC90 (HCV replicon cells) for this compound "Cc1nc(NCC2CC2)nc(N[C@@H]2CC[C@@H](O)[C@@]2(C)O)c1-c1nc2ccccc2s1"
0.5 to 5 µM

Provide HCV replicon cells EC90 reading for "COc1cc(CNc2nc(C)c(-c3nc4ccccc4s3)c(N[C@H]3C[C@@H](CO)[C@H](O)[C@@H]3O)n2)cc(OC)c1" .
0.5 to 5 µM

Report value only: EC90, HCV replicon cells, "Cc1nc(NS(C)(=O)=O)nc(N[C@@H]2C[C@H](CO)[C@@H](O)[C@H]2O)c1-c1nc2ccccc2s1"
> 5 µM

State measured EC90 of the compound "CCCc1nccc2sc(-c3c(C)nc(N[C@H](C)C4CC4)nc3N[C@@H]3C[C@H](CO)[C@@H](O)[C@H]3O)nc12" with HCV replicon cells.
< 0.5 µM

# lookup: HCV replicon cells EC90, key = Cc1nc(N[C@H](C)c2ccc(OC(F)(F)F)cc2)nc(N[C@@H]2C[C@H](C(C)O)[C@@H](O)[C@H]2O)c1-c1nc2cnccc2s1 (some centres unmarked)
< 0.5 µM

Identify measured EC90 obtained with HCV replicon cells for Cc1nc(NCC(F)(F)F)nc(N[C@@H]2C[C@H](C(C)O)[C@@H](O)[C@H]2O)c1-c1nc2ccccc2s1 (some centres unmarked) [Example 1632] .
< 0.5 µM

Look up and report EC90, with HCV replicon cells as system, for "CCCc1nccc2sc(-c3c(C)nc(NC4CC4)nc3N[C@@H]3C[C@H](CO)[C@@H](O)[C@H]3O)nc12"
< 0.5 µM

Supply EC90 measured with HCV replicon cells for "Cc1nc(NCC2CC2)nc(N[C@@H]2CC[C@@H](O)[C@@]2(C)O)c1-c1nc2cnccc2s1" .
< 0.5 µM

Please respond with reported EC90 (system HCV replicon cells) for "Cc1nc(NCC2CC2)nc(NC2CC(CO)(CO)C2)c1-c1nc2ccccc2s1" .
0.5 to 5 µM

State EC90 on HCV replicon cells. Entry: "Cc1nc(NCc2ccc(F)cc2F)nc(N[C@@H]2CC[C@@H](O)[C@@]2(C)O)c1-c1nc2cnccc2s1"
< 0.5 µM

====

- Test system: HCV replicon cells
- Assay Comment: Cell-based HCV replicon assay (replicon RNA level by real time PCR, Taqman)
- Condition Info: Hepatitis C virus, 72 h, HCV replicon cells, harvested on day 3, replicon RNA by real time PCR; calculated EC90 reported as range class; read-out: EC90 (μM) range
What EC90 was measured for each of the following?

Specify measured EC90 for Cc1nc(NCC2CC2)nc(N[C@@H]2C[C@H](CO)[C@@H](O)[C@H]2O)c1-c1nc2cnccc2s1 [Example 523] .
< 0.5 µM

Please give the documented EC90 of Cc1nc(NCC(C)(C)C)nc(N[C@@H]2C[C@H](CO)[C@@H](O)[C@H]2O)c1-c1nc2ccccc2s1 [Example 437]
< 0.5 µM

Supply reported EC90 belonging to this compound: COc1cc(CNc2nc(C)c(-c3nc4ccccc4s3)c(N[C@@H]3C[C@H](CO)[C@H]4OC(C)(C)O[C@H]43)n2)cc(OC)c1OC [Example 710]
< 0.5 µM

For the compound Cc1nc(NCC(F)(F)F)nc(N[C@@H]2C[C@H](CO)[C@@H](O)[C@H]2O)c1-c1cc2cc(C(F)(F)F)ncc2o1 [Example 142] , report EC90.
0.5 to 5 µM

Item CCCCCCNc1nc(Cl)c(-c2nc3ccccc3s2)c(N[C@@H]2C[C@H](CO)[C@@H](O)[C@H]2O)n1 [Example 454] : provide EC90
< 0.5 µM

State its EC90 for this compound: Cc1nc(NC(C)(C)C)nc(N[C@@H]2C[C@H](CO)[C@@H](O)[C@H]2O)c1-c1nc2ccccc2s1 [Example 429]
< 0.5 µM

State its EC90: CNc1ccc2sc(-c3c(C)nc(NCC(F)(F)F)nc3N[C@@H]3C[C@H](CO)[C@@H](O)[C@H]3O)nc2c1 [Example 260]
< 0.5 µM

Using known records, supply EC90 for OC[C@H]1C[C@@H](Nc2nc(NC(CF)CF)nc(Cl)c2-c2nc3ccccc3s2)[C@H](O)[C@@H]1O [Example 129]
< 0.5 µM

Supply EC90 value. Item: Cc1cccnc1CNc1nc(C)c(-c2nc3ccccc3s2)c(N[C@@H]2C[C@H](CO)[C@@H](O)[C@H]2O)n1 [Example 499]
< 0.5 µM

Indicate its recorded EC90; the compound in question is Cc1nc(NCc2ccc(C(F)(F)F)cc2)nc(N[C@@H]2C[C@H](CO)[C@H]3OC(C)(C)O[C@H]32)c1-c1nc2ccccc2s1 [Example 241]
0.5 to 5 µM

Read the entry CCc1cc2cc(-c3c(C)nc(NCc4ccco4)nc3N[C@@H]3C[C@H](CO)[C@@H](O)[C@H]3O)oc2cn1 [Example 705] and write its reported EC90.
< 0.5 µM

// fetch EC90 given entry Cc1nc(NC(CF)CF)nc(N[C@@H]2C[C@H](CO)[C@H]3OC(C)(C)O[C@H]32)c1-c1nc2ccccc2s1 [Example 136]
0.5 to 5 µM

Kindly indicate its recorded EC90. Item: CCC(C)(C)Nc1nc(C)c(-c2nc3ccccc3s2)c(N[C@@H]2C[C@H](CO)[C@@H](O)[C@H]2O)n1 [Example 513]
< 0.5 µM

Consider the compound Cc1nc(N[C@@H](C)C(F)(F)F)nc(N[C@@H]2C[C@H](CO)[C@@H](O)[C@H]2O)c1-c1nc2ccccc2s1 [Example 132] . State its measured EC90.
0.5 to 5 µM

Give the reported EC90 for this compound. Cc1nc(NCc2cc3ccccc3s2)nc(N[C@@H]2C[C@H](CO)[C@H]3OC(C)(C)O[C@H]32)c1-c1nc2ccccc2s1 [Example 475]
0.5 to 5 µM

Note down EC90 recorded for CCOCCNc1nc(C)c(-c2nc3cc(NC)ccc3s2)c(N[C@@H]2C[C@H](CO)[C@@H](O)[C@H]2O)n1 [Example 259]
< 0.5 µM

Retrieve EC90 measured for CCOC(=O)NCCNc1nc(C)c(-c2nc3ccccc3s2)c(N[C@@H]2C[C@H](CO)[C@@H](O)[C@H]2O)n1 [Example 256] and print it.
< 0.5 µM

Return reported EC90. Input compound: CCc1cc2cc(-c3c(C)nc(NCc4ccccn4)nc3N[C@@H]3C[C@H](CO)[C@@H](O)[C@H]3O)oc2cn1 [Example 344]
< 0.5 µM

Entry Cc1nc(NCC(F)(F)F)nc(N[C@@H]2C[C@H](CO)[C@@H](O)[C@H]2O)c1-c1nc2cc(N(C)C)ccc2s1 [Example 247] needs its EC90 filled in; supply it.
< 0.5 µM

Return value of EC90 for input COc1ccc(CNc2nc(C)c(-c3nc4ccccc4s3)c(N[C@@H]3C[C@H](CO)[C@H]4OC(C)(C)O[C@H]43)n2)cc1OC [Example 708] , no commentary.
< 0.5 µM

In one line, give reported EC90 of the entry CCc1cc2cc(-c3c(C)nc(NCc4cc(OC)cc(OC)c4)nc3N[C@@H]3C[C@H](CO)[C@H]4OC(C)(C)O[C@H]43)oc2cn1 [Example 345] .
< 0.5 µM

Please look at this compound and report its EC90: Cc1ccccc1CNc1nc(C)c(-c2nc3ccccc3s2)c(N[C@@H]2C[C@H](CO)[C@H]3OC(C)(C)O[C@H]32)n1 [Example 487]
> 5 µM

Indicate the recorded EC90 value for this compound: Cc1cccc(CNc2nc(C)c(-c3nc4ccccc4s3)c(N[C@@H]3C[C@H](CO)[C@H]4OC(C)(C)O[C@H]43)n2)c1 [Example 485]
0.5 to 5 µM

Entry Cc1ccsc1CNc1nc(C)c(-c2nc3ccccc3s2)c(N[C@@H]2C[C@H](CO)[C@@H](O)[C@H]2O)n1 [Example 479] needs its EC90 filled in; supply it.
< 0.5 µM

State, in one line, measured EC90 of CCCCCNc1nc(C)c(-c2cc3cc(CC)ncc3o2)c(N[C@@H]2C[C@H](CO)[C@@H](O)[C@H]2O)n1 [Example 514]
< 0.5 µM

Provide measured EC90 value, entry: COc1cc2cc(-c3c(C)nc(NCc4ccccn4)nc3N[C@@H]3C[C@H](CO)[C@H]4OC(C)(C)O[C@H]43)oc2c(C)n1 [Example 349]
0.5 to 5 µM
